system: HCT-116 colon; experiment: NCI tumour cell line growth inhibition, 48 h
TGI listing for selected molecules.

[
  {
    "MOLECULE": "CC(C)(C)c1cc(O)c2c(c1O)C(=O)CCC2",
    "TGI": "> 100 µM"
  },
  {
    "MOLECULE": "Cc1cccc(NC(N)=S)c1",
    "TGI": "> 100 µM"
  },
  {
    "MOLECULE": "Nc1c(C(=O)c2cccc(C(O)(CO)CO)c2)cnn1-c1ccc(F)cc1",
    "TGI": "> 25 µM"
  },
  {
    "MOLECULE": "O=C(N/C(=C\\NC1=NCCS1)C(=O)N1CSC[C@@H]1C(=O)O)c1ccccc1",
    "TGI": "> 100 µM"
  },
  {
    "MOLECULE": "CSC1=C(C(=O)N(COCC[Si](C)(C)C)c2ccccc2Br)CCC(C(C)(C)C)C1 (stereo not drawn)",
    "TGI": "18.3 µM"
  },
  {
    "MOLECULE": "CC(/C=C/c1ccccc1)=N\\N=C(C)\\C=C\\c1ccccc1",
    "TGI": "> 100 µM"
  },
  {
    "MOLECULE": "O=C1C[C@@H]2[C@@H](C=CC23CC3)N1O",
    "TGI": "> 100 µM"
  },
  {
    "MOLECULE": "C=CC(C)CCC(C/C=C(\\C)CCCC(C)C)C(=C)CCCC(C)C (stereo not drawn)",
    "TGI": "> 100 µM"
  },
  {
    "MOLECULE": "COc1ccc(-c2cc(=O)c3c(OC)c(O)c(OC)cc3o2)cc1",
    "TGI": "> 100 µM"
  },
  {
    "MOLECULE": "Cc1nnc(N2C(=O)C(=Cc3ccc(Cl)cc3)N=C2c2ccc(Cl)cc2)nc1/C=C\\c1ccc(N(C)C)cc1",
    "TGI": "> 100 µM"
  },
  {
    "MOLECULE": "COc1ccc(C2CC(c3ccc4ccccc4c3)=NN2/C=C2\\SC(=S)N(NC(=O)Cc3ccccc3Nc3c(Cl)cccc3Cl)C2=O)cc1 (stereo not drawn)",
    "TGI": "> 39.6 µM"
  },
  {
    "MOLECULE": "Cc1cc(N(CCC#N)CCC#N)ccc1/C=C(\\NC(=O)/C=C/c1ccccc1)NC(=O)Nc1ccccc1C",
    "TGI": "> 100 µM"
  },
  {
    "MOLECULE": "CC1OC1P(=O)(O)O (stereo not drawn)",
    "TGI": "> 100 µM"
  },
  {
    "MOLECULE": "CCOP(=O)(OCC)c1cc2cc(O)ccc2oc1=O",
    "TGI": "> 100 µM"
  },
  {
    "MOLECULE": "CN(C(=N)c1ccccc1)c1ccccc1",
    "TGI": "> 100 µM"
  },
  {
    "MOLECULE": "CCOC(=O)C1C(c2ccco2)C2(C#N)C(=N)OC1(C)C2(C#N)C#N (stereo not drawn)",
    "TGI": "> 100 µM"
  },
  {
    "MOLECULE": "CC12CCC(=O)N1c1cc([N+](=O)[O-])ccc1N2 (stereo not drawn)",
    "TGI": "> 100 µM"
  },
  {
    "MOLECULE": "COc1cccc(-c2cc(=O)c3cc(C)c(C)c(C(=O)O)c3o2)c1",
    "TGI": "> 100 µM"
  },
  {
    "MOLECULE": "CCOc1cc(/C=N\\O)cc(/C=N/O)c1O",
    "TGI": "> 100 µM"
  },
  {
    "MOLECULE": "COc1c(C(=O)/C(=N/Nc2cccc(Cl)c2)C(C)=O)c(O)c(OC)c2occc12",
    "TGI": "> 100 µM"
  },
  {
    "MOLECULE": "N#CC1=C(c2ccccc2)NN(Cc2ccccc2)C(c2ccc(Cl)cc2)CC1=O (stereo not drawn)",
    "TGI": "48.5 µM"
  },
  {
    "MOLECULE": "Cc1ccccc1NC(=O)N/C(N)=N/c1nc(C)c(C)s1",
    "TGI": "> 75.9 µM"
  },
  {
    "MOLECULE": "CC(=O)OC(=C(C#N)C#N)c1nccnc1C(=O)O",
    "TGI": "> 100 µM"
  }
]
